Target Of Assay: BRD4 BD2 (Homo sapiens)
Experimental Details: AlphaScreen binding assay, BRD4 Bromodomain 2
pIC50: −log10 of the molar value.
Catalogue of pIC50 readings, one per entry.

>  <Compound>
CCOC(=O)N1C[C@H](C)N(C(=O)C2CC2)c2ccc(-c3cnn(C4CC4)c3)cc21 [Example I-379]

>  <Target Of Assay>
BRD4 BD2 (Homo sapiens)

>  <pIC50>
6.30 to 7.30

$$$$
>  <Compound>
COCCn1cc(-c2ccc3c(c2)N(C(=O)OC(C)C)C[C@H](C)N3C(=O)C2CC2)cn1 [Example I-314]

>  <Target Of Assay>
BRD4 BD2 (Homo sapiens)

>  <pIC50>
6.30 to 7.30

$$$$
>  <Compound>
CC(=O)N1c2ccccc2N(C(=O)c2ccc(F)cn2)C[C@@H]1C [Example I-763]

>  <Target Of Assay>
BRD4 BD2 (Homo sapiens)

>  <pIC50>
< 6.30

$$$$
>  <Compound>
CC(=O)N1c2ccccc2N(C(=O)[C@H]2COc3ccccc3O2)C[C@@H]1C [Example I-737]

>  <Target Of Assay>
BRD4 BD2 (Homo sapiens)

>  <pIC50>
< 6.30

$$$$
